Tested on: KRAS patient-derived spheroids with HUVEC/MSC, viability;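 further: spheroids exposed to agents for 7 days; 100% = DMSO vehicle control viability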
ASSAY_METHOD_TEXT: Anticancer human tumor 323965-272-R-J2-PDC patient-derived pancreatic carcinoma cell line growth inhibition [KRAS2]
CONDITION_DETAILS: second compound 1 µM; first compound 0.1 µM; active compounds read low
PROPERTY_NAME: viability, T/C (%)
Field: numeric (%). Do not append units.

These solved cases illustrate the format of a correct answer.
INSERT INTO results (compound, assay_result) VALUES
  ('CC(=O)OC12COC1CC(O)C1(C)C(=O)C(O)C3=C(C)C(OC(=O)C(O)C(NC(=O)OC(C)(C)C)c4ccccc4)CC(O)(C(OC(=O)c4ccccc4)C21)C3(C)C (stereo not drawn) + CC1OCC2(CCN(c3cnc(Sc4ccnc(N)c4Cl)c(N)n3)CC2)C1N', 31.2),
  ('Cn1nccc1Nc1nccc(-c2cc3c(s2)C(C)(C)N(CCN2CCOCC2)C3=O)n1 + CC1OCC2(CCN(c3cnc(Sc4ccnc(N)c4Cl)c(N)n3)CC2)C1N', 32.4);

So what does the record say about viability, T/C for CC1(C)CCC(CN2CCN(c3ccc(C(=O)NS(=O)(=O)c4ccc(NCC5CCOCC5)c([N+](=O)[O-])c4)c(Oc4cnc5[nH]ccc5c4)c3)CC2)=C(c2ccc(Cl)cc2)C1 + CNCc1ccccc1-c1csc(C(C)Nc2nc(C)nc3cc(OC)c(OC)cc23)c1 ? 104
